Target: purified recombinant human insulin receptor-exon 11 (human)
Test: competition with 125I-insulin (SPA)
The following substances are shown together with reported IR, binding relative to human insulin values.
Answer format: numeric, % implied, no suffix.

Sample records with IR, binding relative to human insulin:
SUBSTANCE | UNIT_STRING | IR, binding relative to human insulin
single-chain insulin PAK 1824, connecting peptide GRGSGK [B1G_B3Q_A18Q_A21G] (from UniProt P01308 25-53; P01308 90-110) (ligand) | % | 75
single-chain insulin with connecting peptide GGSSGK (SEQ ID NO:116), no PAK number printed (from UniProt P01308 25-53; P01308 90-110) (ligand) | % | 23

Would you kindly look at the next entry?
Q) # IR, binding relative to human insulin lookup, item single-chain insulin PAK 1894, connecting peptide TGLGSGQ [desB1_B3Q_B10Q_A18Q] (from UniProt P01308 26-53; P01308 90-110) (ligand)
A) 38

---

Biological target: human IGF-1 receptor (human) (UniProt P08069)
Assay: competition with 125I-IGF-1 (SPA)
REPORTED_PROPERTY: Human IGF-1 receptor binding relative to human insulin (%)
Answer format: numeric, % implied, no suffix.

Sample records with Human IGF-1 receptor binding relative to human insulin:
SUBSTANCE | UNIT_STRING | NUMERIC_RESULT
single-chain insulin PAK 1688028, connecting peptide VGMSSGK (SEQ ID NO:106) (from UniProt P01308 25-53; P01308 90-110) (ligand) | % | 0.2
single-chain insulin PAK 1688007, connecting peptide VGYSSGK (from UniProt P01308 25-53; P01308 90-110) (ligand) | % | 0.2
single-chain insulin with connecting peptide VGHSSGK (SEQ ID NO:108), no PAK number printed (from UniProt P01308 25-53; P01308 90-110) (ligand) | % | 0.15
single-chain insulin PAK 1708, connecting peptide VGSRSGK (from UniProt P01308 25-53; P01308 90-110) (ligand) | % | 0.2
single-chain insulin PAK 1638077, connecting peptide VGSSRGK (from UniProt P01308 25-53; P01308 90-110) (ligand) | % | 0.1

Would you kindly look at the next entry?
Q) # Human IGF-1 receptor binding relative to human insulin lookup, item single-chain insulin PAK 1687046, connecting peptide VGSMSGK (from UniProt P01308 25-53; P01308 90-110) (ligand)
A) 0.1

---

Biological target: purified recombinant human insulin receptor-exon 11 (human) (UniProt P06213)
Sequence (P06213 other isoform, or with tags, fused parts or gaps limits assumed, form in doubt): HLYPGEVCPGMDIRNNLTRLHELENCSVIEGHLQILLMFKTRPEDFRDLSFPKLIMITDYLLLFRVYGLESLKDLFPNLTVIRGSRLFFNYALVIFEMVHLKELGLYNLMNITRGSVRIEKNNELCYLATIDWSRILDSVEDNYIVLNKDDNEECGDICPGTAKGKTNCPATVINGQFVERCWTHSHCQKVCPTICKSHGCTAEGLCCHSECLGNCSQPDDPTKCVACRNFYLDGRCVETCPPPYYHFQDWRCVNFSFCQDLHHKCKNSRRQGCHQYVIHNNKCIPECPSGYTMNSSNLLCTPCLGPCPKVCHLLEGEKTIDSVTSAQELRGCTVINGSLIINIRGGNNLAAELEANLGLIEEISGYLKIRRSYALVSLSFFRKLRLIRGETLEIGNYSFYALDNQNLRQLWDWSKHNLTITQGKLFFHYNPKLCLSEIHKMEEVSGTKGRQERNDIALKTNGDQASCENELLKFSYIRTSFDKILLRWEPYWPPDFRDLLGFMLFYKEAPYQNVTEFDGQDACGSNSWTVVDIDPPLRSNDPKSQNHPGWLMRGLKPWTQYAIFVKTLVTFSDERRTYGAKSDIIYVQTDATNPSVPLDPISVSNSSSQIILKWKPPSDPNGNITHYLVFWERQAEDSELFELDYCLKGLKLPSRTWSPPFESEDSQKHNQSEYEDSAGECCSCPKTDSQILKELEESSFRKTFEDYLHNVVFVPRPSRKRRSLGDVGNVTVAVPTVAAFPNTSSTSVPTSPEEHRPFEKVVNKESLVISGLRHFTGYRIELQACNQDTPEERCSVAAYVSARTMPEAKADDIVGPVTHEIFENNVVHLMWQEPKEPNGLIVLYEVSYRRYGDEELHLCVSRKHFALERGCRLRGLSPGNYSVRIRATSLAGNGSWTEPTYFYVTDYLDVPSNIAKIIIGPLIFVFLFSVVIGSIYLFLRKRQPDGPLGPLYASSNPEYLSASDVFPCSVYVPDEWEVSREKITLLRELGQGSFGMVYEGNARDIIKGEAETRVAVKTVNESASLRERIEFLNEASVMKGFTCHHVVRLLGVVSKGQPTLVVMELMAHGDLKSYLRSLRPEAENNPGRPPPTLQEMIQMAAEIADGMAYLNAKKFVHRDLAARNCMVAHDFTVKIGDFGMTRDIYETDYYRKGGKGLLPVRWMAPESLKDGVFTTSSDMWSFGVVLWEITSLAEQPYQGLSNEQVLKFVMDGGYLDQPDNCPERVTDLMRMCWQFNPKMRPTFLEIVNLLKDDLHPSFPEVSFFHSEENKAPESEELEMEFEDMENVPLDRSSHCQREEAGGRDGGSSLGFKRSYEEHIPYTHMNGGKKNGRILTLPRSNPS
Assay: competition with 125I-insulin (SPA)
REPORTED_PROPERTY: IR, binding relative to human insulin (%)
Answer format: numeric, % implied, no suffix.

SUBSTANCE | EXPERIMENTAL_SYSTEM | REPORTED_PROPERTY | NUMERIC_RESULT
single-chain insulin PAK 1734, connecting peptide VGLSSGK [A21G] (from UniProt P01308 25-53; P01308 90-110) (ligand) | purified recombinant human insulin receptor-exon 11 (human) (UniProt P06213) | IR, binding relative to human insulin | 211
single-chain insulin PAK 1811, connecting peptide TGLGSGK [A18Q_A21G] (from UniProt P01308 25-53; P01308 90-110) (ligand) | purified recombinant human insulin receptor-exon 11 (human) (UniProt P06213) | IR, binding relative to human insulin | 136
single-chain insulin PAK 1812, connecting peptide TGLGRGK [A18Q_A21G] (from UniProt P01308 25-53; P01308 90-110) (ligand) | purified recombinant human insulin receptor-exon 11 (human) (UniProt P06213) | IR, binding relative to human insulin | 118
single-chain insulin PAK 1785, connecting peptide ASWGSGK [A18Q_A21G] (from UniProt P01308 25-53; P01308 90-110) (ligand) | purified recombinant human insulin receptor-exon 11 (human) (UniProt P06213) | IR, binding relative to human insulin | 136

Would you kindly look at the next entry?
Q) # IR, binding relative to human insulin lookup, item single-chain insulin PAK 1838, connecting peptide TGLGKGQ [B29R_A18Q] (from UniProt P01308 25-53; P01308 90-110) (ligand)
A) 113
